test system: MCF7; assay: Cytotoxicity against human MCF7 cells by MTT assay; format: functional, cell-based
pIC50: −log10 of the molar value.
Response key: rule met means pIC50 >= 5; rule not met means pIC50 < 5.

- CCCn1c(-c2ccccc2/C=C/c2ccccc2)nc2ccccc2c1=O: rule not met
- COc1ccc(Cn2c(-c3ccccc3/C=C/c3ccccc3)nc3ccccc3c2=O)cc1: rule not met
- Cc1ccc(-n2c(-c3ccccc3/C=C/c3ccccc3)nc3ccccc3c2=O)cc1: rule not met
- CC(C)Cn1c(-c2ccccc2/C=C/c2ccccc2)nc2ccccc2c1=O: rule not met
- O=c1c2ccccc2nc(-c2ccccc2/C=C/c2ccccc2)n1C1CCCC1: rule not met
- O=c1c2ccccc2nc(-c2ccccc2/C=C/c2ccccc2)n1-c1ccccc1: rule not met
- O=c1c2ccccc2nc(-c2ccccc2/C=C/c2ccccc2)n1C1CC1: rule met
- CC(C)n1c(-c2ccccc2/C=C/c2ccccc2)nc2ccccc2c1=O: rule met
- COc1ccc(-n2c(-c3ccccc3/C=C/c3ccccc3)nc3ccccc3c2=O)cc1: rule not met
